# System: Enterococcus faecium EFM.384, Daptomycin resistant mutant (14-A)
# Type: cell-based
# Experimental parameters: MHBc with 50 mg/L calcium, 18-20 hours at 37° C.
Readout label: Efm384 MIC (µg/mL)
Answer with a number only, understood to be in µg/mL.

Compound	Reported result
C[C@H](CC(=O)O)[C@@H]1NC(=O)[C@@H](CO)NC(=O)CNC(=O)[C@H](CC(=O)O)NC(=O)[C@@H](C)NC(=O)[C@H](CC(=O)O)NC(=O)[C@H](CCCN)NC(=O)CNC(=O)[C@@H](NC(=O)[C@H](CC(=O)O)NC(=O)[C@@H](CC(N)=O)NC(=O)[C@H](Cc2c[nH]c3ccccc23)NC(=O)C2CCCCCCCCCCC2)[C@@H](C)OC(=O)[C@H](CC(=O)c2ccccc2N)NC1=O [Compound 28]	32

Read the entry CCCCOc1ccc(-c2ccc(C(=O)N[C@@H](Cc3c[nH]c4ccccc34)C(=O)N[C@H](CC(N)=O)C(=O)N[C@@H](CC(=O)O)C(=O)N[C@@H]3C(=O)NCC(=O)N[C@@H](CCCN)C(=O)N[C@@H](CC(=O)O)C(=O)N[C@H](C)C(=O)N[C@@H](CC(=O)O)C(=O)NCC(=O)N[C@H](CO)C(=O)N[C@@H]([C@H](C)CC(=O)O)C(=O)N[C@@H](CC(=O)c4ccccc4N)C(=O)O[C@@H]3C)cc2)cc1 [Compound 60] and write its reported Efm384 MIC.
16

Please give measured Efm384 MIC of the following entry: CCCCCCCCCC(C)NC(=O)N[C@@H](Cc1c[nH]c2ccccc12)C(=O)N[C@H](CC(N)=O)C(=O)N[C@@H](CC(=O)O)C(=O)N[C@@H]1C(=O)NCC(=O)N[C@@H](CCCN)C(=O)N[C@@H](CC(=O)O)C(=O)N[C@H](C)C(=O)N[C@@H](CC(=O)O)C(=O)NCC(=O)N[C@H](CO)C(=O)N[C@@H]([C@H](C)CC(=O)O)C(=O)N[C@@H](CC(=O)c2ccccc2N)C(=O)O[C@@H]1C (single isomer, unassigned) [14 isomer I]
8

---

# Test system: Staphylococcus aureus SAU.278, Daptomycin resistant mutant (D10)
# Assay type: cell-based
# Experimental parameters: MHBc with 50 mg/L calcium, 18-20 hours at 37° C.
Examples of compounds with documented Sa278 MIC follow.
Numeric only. Scale: µg/mL

Please review the entries below; each comes with its answer.
Compound	Unit label	Sa278 MIC
CCCCCC1CCC([C@H]2CC[C@H](C(=O)N[C@@H](Cc3c[nH]c4ccccc34)C(=O)N[C@H](CC(N)=O)C(=O)N[C@@H](CC(=O)O)C(=O)N[C@@H]3C(=O)NCC(=O)N[C@@H](CCCN)C(=O)N[C@@H](CC(=O)O)C(=O)N[C@H](C)C(=O)N[C@@H](CC(=O)O)C(=O)NCC(=O)N[C@H](CO)C(=O)N[C@@H]([C@H](C)CC(=O)O)C(=O)N[C@@H](CC(=O)c4ccccc4N)C(=O)O[C@@H]3C)CC2)CC1 (some centres unmarked)	µg/mL	8
CCCCCCc1ccc(/C(C)=C/C(=O)N[C@@H](Cc2c[nH]c3ccccc23)C(=O)N[C@H](CC(N)=O)C(=O)N[C@@H](CC(=O)O)C(=O)N[C@@H]2C(=O)NCC(=O)N[C@@H](CCCN)C(=O)N[C@@H](CC(=O)O)C(=O)N[C@H](C)C(=O)N[C@@H](CC(=O)O)C(=O)NCC(=O)N[C@H](CO)C(=O)N[C@@H]([C@H](C)CC(=O)O)C(=O)N[C@@H](CC(=O)c3ccccc3N)C(=O)O[C@@H]2C)cc1	µg/mL	1
CCCCCCCCCCC(=O)N[C@@H](Cc1c[nH]c2ccccc12)C(=O)N[C@H](CC(N)=O)C(=O)N[C@@H](CC(=O)O)C(=O)N[C@@H]1C(=O)NCC(=O)N[C@@H](CCCN)C(=O)N[C@@H](CC(=O)O)C(=O)N[C@H](C)C(=O)N[C@@H](CC(=O)O)C(=O)NCC(=O)N[C@H](CO)C(=O)N[C@@H]([C@H](C)CC(=O)O)C(=O)N[C@@H](CC(=O)c2ccccc2N)C(=O)O[C@@H]1C	µg/mL	8

Field: next compound
State, in one line, measured Sa278 MIC of CCCCCCCCCCCCCCC(=O)N[C@@H](Cc1c[nH]c2ccccc12)C(=O)N[C@H](CC(N)=O)C(=O)N[C@@H](CC(=O)O)C(=O)N[C@@H]1C(=O)NCC(=O)N[C@@H](CCCN)C(=O)N[C@@H](CC(=O)O)C(=O)N[C@H](C)C(=O)N[C@@H](CC(=O)O)C(=O)NCC(=O)N[C@H](CO)C(=O)N[C@@H]([C@H](C)CC(=O)O)C(=O)N[C@@H](CC(=O)c2ccccc2N)C(=O)O[C@@H]1C
2
